Hey, just so you know, these numbers are from patent US12157746B2.

# Assayed target: human TLR7 (Homo sapiens, UniProt Q9NYK1)
# Sequence (Q9NYK1 27-1049): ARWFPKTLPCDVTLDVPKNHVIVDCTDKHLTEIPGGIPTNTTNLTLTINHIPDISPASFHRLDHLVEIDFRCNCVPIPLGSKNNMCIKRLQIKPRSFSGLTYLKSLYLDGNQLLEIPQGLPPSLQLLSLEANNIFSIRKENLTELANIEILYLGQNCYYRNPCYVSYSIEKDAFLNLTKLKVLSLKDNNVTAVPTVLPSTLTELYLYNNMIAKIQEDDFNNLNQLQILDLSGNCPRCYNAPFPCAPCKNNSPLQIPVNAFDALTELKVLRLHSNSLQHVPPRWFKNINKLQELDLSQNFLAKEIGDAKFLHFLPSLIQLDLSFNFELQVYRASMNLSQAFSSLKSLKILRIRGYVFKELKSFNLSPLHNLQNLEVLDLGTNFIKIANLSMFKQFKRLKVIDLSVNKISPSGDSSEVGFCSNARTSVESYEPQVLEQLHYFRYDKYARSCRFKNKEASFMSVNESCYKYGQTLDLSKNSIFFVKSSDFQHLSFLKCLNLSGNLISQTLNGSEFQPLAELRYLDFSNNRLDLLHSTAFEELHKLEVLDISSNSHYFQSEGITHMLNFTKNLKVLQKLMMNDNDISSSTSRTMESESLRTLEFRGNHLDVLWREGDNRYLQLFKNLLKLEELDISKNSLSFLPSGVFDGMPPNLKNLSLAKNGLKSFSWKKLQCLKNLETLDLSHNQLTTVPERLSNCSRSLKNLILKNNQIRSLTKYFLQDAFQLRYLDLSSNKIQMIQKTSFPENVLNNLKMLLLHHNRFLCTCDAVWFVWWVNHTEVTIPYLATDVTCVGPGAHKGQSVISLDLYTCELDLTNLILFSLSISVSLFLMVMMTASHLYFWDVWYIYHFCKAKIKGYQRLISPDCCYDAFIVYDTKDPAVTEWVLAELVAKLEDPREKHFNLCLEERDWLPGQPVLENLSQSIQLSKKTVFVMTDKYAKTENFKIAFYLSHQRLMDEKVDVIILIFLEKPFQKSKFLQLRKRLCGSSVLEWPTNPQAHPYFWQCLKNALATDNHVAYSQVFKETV
# Protocol details: HEK293-Blue-hTLR-7 cells assay
# Measurement parameters: HEK293-Blue-hTLR7 cells, R848 stimulation, 20 hrs, SEAP reporter; read-out: HEK/hTLR7 IC50
# Description: HEK293-Blue-hTLR-7 Cells Assay: A stable HEK293-Blue-hTLR-7 cell line was purchased from InvivoGen (Cat. #: hkb-htlr7, San Diego, California, USA). […] The cell culture supernatant SEAP reporter activity was determined using QUANTI-Blue™ kit (Cat. #: rep-qb1, Invivogen, San Diego, Ca. USA) at a wavelength of 640 nm, a detection medium that turns purple or blue in the presence of alkaline phosphatase. […]
Readout label: IC50 (nM)

- Molecule: "C[C@@H]1CN(c2ccc(C#N)n3nccc23)C[C@@H]2c3ccc(N4CC[C@@](C)(N)C4)cc3CN12"
  Assayed target: "human TLR7 (Homo sapiens, UniProt Q9NYK1)"
  Readout label: "IC50"
  Unit of measure: "nM"
  Numeric value: 25.8

(a) C[C@@H]1CN(c2ccc(C#N)c3ncccc23)C[C@@H]2c3ccc(NCC4(F)CNC4)cc3CN12
(b) C[C@@H]1CN(c2ccc(C#N)c3ncccc23)C[C@@H]2c3ccc(NCC4COCCN4)cc3CN12 (stereo partly shown)
(c) C[C@@H]1CN(c2ccc(C#N)c3ncccc23)CC2c3ccc(N4C[C@H](N)[C@@H](O)C4)cc3CN21 (relative stereo)
Sort ascending by IC50. Lab note: record answer as labels in requested order.
c, b, a

----------
# Tested on: Balb/c 3T3 mouse fibroblasts
# Protocol details: 3T3 in vitro phototoxicity assay
# Format: cell-based
# Measurement parameters: Factor=IC50(−UV)/IC50(+UV); cut-off factor >5; Neutral Red uptake
Recorded Phototoxicity factor by entry
The answer should be a number; do not append a unit.

Guide cases for Phototoxicity factor, answers given:
- Molecule: "CO[C@@H]1CN(c2ccc3c(c2)CN2[C@H](C)CN(c4ccc(C#N)n5nccc45)C[C@H]32)C[C@H]1N [Example 94]"
  Assayed target: "Balb/c 3T3 mouse fibroblasts"
  Numeric value: 1.99
- Molecule: "C[C@@H]1CN(c2ccc(C#N)c3ncccc23)C[C@@H]2c3ccc(N4CC5CNCC(C4)O5)cc3CN12 [Example 14]"
  Assayed target: "Balb/c 3T3 mouse fibroblasts"
  Numeric value: 1.00
- Molecule: "C[C@@H]1CN(c2ccc(C#N)c3ncccc23)C[C@@H]2c3ccc(N4CC(C)(N)C4)cc3CN12 [Example 39]"
  Assayed target: "Balb/c 3T3 mouse fibroblasts"
  Numeric value: 1.00

Turning now to a further molecule:
Notebook: C[C@@H]1CN(c2ccc(C#N)c3ncccc23)C[C@@H]2c3ccc(N4CCOC[C@@H](N)C4)cc3CN12 [Example 54B] , Phototoxicity factor read as 1.00

----------
# Assayed target: human TLR8 (Homo sapiens, UniProt Q9NR97)
# Sequence (Q9NR97 27-1041): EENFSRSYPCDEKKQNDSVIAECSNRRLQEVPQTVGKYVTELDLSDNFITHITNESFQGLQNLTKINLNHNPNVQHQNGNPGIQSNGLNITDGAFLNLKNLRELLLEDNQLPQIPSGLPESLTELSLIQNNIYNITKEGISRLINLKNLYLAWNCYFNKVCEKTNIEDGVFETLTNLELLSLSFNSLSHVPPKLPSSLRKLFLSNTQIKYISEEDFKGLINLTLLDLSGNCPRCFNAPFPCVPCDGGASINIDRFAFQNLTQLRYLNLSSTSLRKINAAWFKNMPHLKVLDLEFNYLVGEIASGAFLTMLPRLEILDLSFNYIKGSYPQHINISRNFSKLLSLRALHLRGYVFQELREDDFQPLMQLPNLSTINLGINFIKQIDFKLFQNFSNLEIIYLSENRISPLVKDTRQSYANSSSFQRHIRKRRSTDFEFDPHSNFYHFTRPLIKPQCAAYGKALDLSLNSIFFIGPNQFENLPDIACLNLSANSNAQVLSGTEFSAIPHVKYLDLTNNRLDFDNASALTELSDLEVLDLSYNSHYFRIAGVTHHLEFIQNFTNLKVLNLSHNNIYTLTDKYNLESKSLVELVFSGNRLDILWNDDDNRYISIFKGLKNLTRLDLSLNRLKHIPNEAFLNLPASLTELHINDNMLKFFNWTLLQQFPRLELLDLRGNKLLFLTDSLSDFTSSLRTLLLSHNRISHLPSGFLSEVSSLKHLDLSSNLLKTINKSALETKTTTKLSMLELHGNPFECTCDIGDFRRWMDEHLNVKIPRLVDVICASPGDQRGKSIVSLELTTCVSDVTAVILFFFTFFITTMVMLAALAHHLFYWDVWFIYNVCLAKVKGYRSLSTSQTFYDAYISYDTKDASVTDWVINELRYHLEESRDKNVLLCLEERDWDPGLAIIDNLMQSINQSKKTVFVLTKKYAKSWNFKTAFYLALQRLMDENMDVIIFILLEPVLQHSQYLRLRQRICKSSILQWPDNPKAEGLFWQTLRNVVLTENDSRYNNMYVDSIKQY
# Protocol details: HEK293-Blue-hTLR-8 cells assay
# Measurement parameters: HEK293-Blue-hTLR8 cells, R848 stimulation, 20 hrs, SEAP reporter; read-out: HEK/hTLR8 IC50
# Procedure: HEK293-Blue-hTLR-8 Cells Assay: A stable HEK293-Blue-hTLR-8 cell line was purchased from InvivoGen (Cat. #: hkb-htlr8, San Diego, California, USA). […] The cell culture supernatant SEAP reporter activity was determined using QUANTI-Blue™kit (Cat. #: rep-qb1, Invivogen, San Diego, Ca, USA) at a wavelength of 640 nm, a detection medium that turns purple or blue in the presence of alkaline phosphatase. […]
Readout label: IC50

- Molecule: "[2H]c1ccc2c(N3C[C@@H](C)N4Cc5cc(N6CC7CNCC(C6)O7)ccc5[C@H]4C3)ccc(C#N)c2n1"
  Assayed target: "human TLR8 (Homo sapiens, UniProt Q9NR97)"
  Readout label: "IC50"
  Result: "2.1 nM"
- Molecule: "C[C@@H]1CN(c2ccc(C#N)c3ncsc23)C[C@@H]2c3ccc(N4CCNCC4)cc3CN12"
  Assayed target: "human TLR8 (Homo sapiens, UniProt Q9NR97)"
  Readout label: "IC50"
  Result: "< 3.2 nM"
- Molecule: "C[C@@H]1CN(c2ccc(C#N)c3ncccc23)C[C@@H]2c3ccc(NC4CNCCOC4)cc3CN12 (stereo partly shown)"
  Assayed target: "human TLR8 (Homo sapiens, UniProt Q9NR97)"
  Readout label: "IC50"
  Result: "< 3.2 nM"

Continue with the next molecule.
IC50 for C[C@@H]1CN(c2ccc(C#N)c3ncccc23)C[C@@H]2c3ccc(N4CCNC[C@H]4CO)cc3CN12 is < 3.2 nM
